Form field: absorbance (one value per entry).
# subjectOfTest: FN2
# assayExplanation: ELISA
Reply with just the number.

Field: example entries. Status: answers known.
binder	readout	value
KPEP11_05 (antibody, V domains shown, Rabbit IgG; also called anti-human EphA4 rabbit monoclonal antibody KPEP11_05) VH: QSLEESGGRLVTPGGSLTLTCTVSGIDLSSYAMSWVRQAPEKGLEWIGFINNYGTYYASWAKGRFTISKTSTTVDLKVTSLTTEDTATYFCVRGGRSPNYDIVSGDIWGPGTLVTVSS VL: YVMMTQTPSSVSEPVGGTVTIKCQASQNIYNSLAWYQQKPGQRPKLLIADASELASGVPQRFSGSGSGTQFTLTISDLECADAATYYCQSSSAGDSYVGGFGGGTEVVVKG	absorbance	0.225
KPEP11_04 (antibody, V domains shown, Rabbit IgG/kappa; Used HRP-labeled as detection antibody in the sandwich ELISAs; also called anti-human EphA4 rabbit monoclonal antibody KPEP11_04; HRP-labeled KPEP11_04) VH: QEQLKESGGRLVTPGGSLTLTCTVSGIDLSSYAMSWVRQAPEKGLEWIGFINMYGTYYASWAKGRFTISRTSTTVDLKVTSLTTEDTATYFCVRGGRSPDYDIVSGDIWGPGTLVTVSS VL: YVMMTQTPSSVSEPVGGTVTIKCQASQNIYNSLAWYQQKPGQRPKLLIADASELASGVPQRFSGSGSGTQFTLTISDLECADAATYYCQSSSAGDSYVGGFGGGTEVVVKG	absorbance	0.227

Turning now to a further binder:
*Q* # get_value(readout='absorbance', item= KPEP11_13 (antibody, V domains shown, Rabbit IgG; also called anti-human EphA4 rabbit monoclonal antibody KPEP11_13) VH: QSLEESGGRLVTPGTPLTLTCTVSGFSLSSYHMSWVRQAPGKGLEWIGIIYRSGNTYYANWAKGRFTISKTSTTVDLKITSPTTEDTATYFCARESSTFYGMDLWGPGTLVTVSS VL: YVMMTQTPSSVSAAVGGTVTINCQASQSVYGNNELAWYQQKPGQRPKLLIYRASTLASGVPSRFKGSGSGTEFTLTISDLECADAATYYCLGYKSDDYTFGGGTKVEIKG )
*A* 0.36
